Across several publications, the following IC50 results were reported for Tyrosine-protein kinase Fyn (Homo sapiens, UniProt P06241).

// known answers, use as guide
q: Entry COCCN1CCC(Nc2ccc3c(c2)/C(=C(\c2ccc(C(F)(F)F)nc2)c2ncc[nH]2)C(=O)N3)CC1 needs its IC50 filled in; supply it.
a: 0.05 to 0.5 µM

q: Entry Cc1ccc(NC(=O)NC2CCCC2)cc1CCc1cc(NC(=O)c2ccc(N3CCN(C)CC3)cc2)[nH]n1 needs its IC50 filled in; supply it.
a: 0.002 µM

q: Entry CCN1CCC(Nc2ccc3c(c2)/C(=C(\c2ccc(F)c(F)c2)c2ncc[nH]2)C(=O)N3)CC1 needs its IC50 filled in; supply it.
a: < 0.05 µM

q: Entry CCN1CCC(Nc2ccc3c(c2)/C(=C(\c2ccc(F)cc2)c2nc(C)c[nH]2)C(=O)N3)CC1 needs its IC50 filled in; supply it.
a: < 0.05 µM

q: Entry C=CC(=O)N[C@H]1CC[C@@H](n2nc(-c3ccc(Oc4ccccc4)cc3)c3c(N)ncnc32)CC1 needs its IC50 filled in; supply it.
a: 0.0071 µM

q: Entry CCN1CCC(Nc2ccc3c(c2)/C(=C(/c2ncc[nH]2)c2cc(F)c(Cl)cc2Cl)C(=O)N3)CC1 needs its IC50 filled in; supply it.
a: < 0.05 µM

q: Entry COc1cc(Nc2ncnc(-n3c(Nc4cccc(C)c4)nc4ccccc43)n2)cc(OC)c1OC needs its IC50 filled in; supply it.
a: > 9.31 µM

q: Entry CCN1CCC(Nc2ccc3c(c2)/C(=C(\c2ccc(F)cc2)c2ncc[nH]2)C(=O)N3)CC1 needs its IC50 filled in; supply it.
a: < 0.05 µM

Continuing:
q: Entry CCN1CCC(Nc2ccc3c(c2)/C(=C(\c2cccc(Cl)c2)c2nc4ccccc4[nH]2)C(=O)N3)CC1 needs its IC50 filled in; supply it.
a: < 0.05 µM

q: Entry O=C(Nc1n[nH]c2cc(Nc3ccccc3F)ccc12)c1ccc(C2CCN(C3COC3)CC2)cc1 needs its IC50 filled in; supply it.
a: 0.468 µM

q: Entry CCOc1cc(OC2CCN(C)CC2(F)F)c2c(Nc3c(F)ccc4c3OCO4)ncnc2c1 (racemic) needs its IC50 filled in; supply it.
a: < 0.1 µM

q: Entry C=CCN(c1ccc(Cl)cc1)c1ncnc(Nc2cc(OC)c(OC)c(OC)c2)n1 needs its IC50 filled in; supply it.
a: 0.935 to 5.61 µM

q: Entry COCCN1CCC(Nc2ccc3c(c2)/C(=C(\c2ccc(F)c(Cl)c2)c2ncc[nH]2)C(=O)N3)CC1 needs its IC50 filled in; supply it.
a: 0.05 to 0.5 µM

q: Entry COc1cc(Nc2ncnc(Nc3cc(-c4ccccc4)nn3C)n2)cc(OC)c1OC needs its IC50 filled in; supply it.
a: 0.923 to 5.54 µM

q: Entry O=C1Nc2ccc(OC3CCN(Cc4ccccc4)CC3)cc2/C1=C(\c1ccccc1)c1nc2ccccc2[nH]1 needs its IC50 filled in; supply it.
a: < 0.05 µM

----------
Across several publications, the following IC50 results were reported for Tyrosine-protein kinase Fyn (Homo sapiens, UniProt P06241).

// known answers, use as guide
q: Entry COc1cc(Nc2ncnc(Nc3cc(C(C)(C)C)[nH]n3)n2)cc(OC)c1OC needs its IC50 filled in; supply it.
a: 1000 to 6010 nM

q: Entry Cc1ccc(NC(=O)c2ccc(CN3CCN(C)CC3)cc2)cc1Nc1nc(-c2cccnc2)cs1 needs its IC50 filled in; supply it.
a: 240 nM

q: Entry Cc1cccc(Nc2ncnc(N3CCCc4ccc(C(F)(F)F)cc43)n2)c1 needs its IC50 filled in; supply it.
a: > 11700 nM

Continuing:
q: Entry CCN1CC[C@H](Oc2cc(OC)cc3ncnc(Nc4c(F)ccc5c4OCO5)c23)C(F)(F)C1 needs its IC50 filled in; supply it.
a: < 100 nM
